System: cancer cells
assay.name: MTT cytotoxic assay of esterification products (Cytotoxicity activity)
Assay type: cell-based, human
run.conditions: esterification products isolated with HPLC; graded strong / moderate / weak
Method: The peaks, fractions and compounds are selected according to the activities of times studies and the changes of peaks. Selecting the HPLC fractions for isolation is according to the cytotoxic activity of the reaction product obtained at a specific time. The compounds having strong to weak activities are selected and isolated. […] Method: 40 mg of triterpene core (fraction IV) was dissolved in 1 ml pyridine in a 50 ml tube. […] Structures are determined with NMR. […]
metric.name: Cytotoxicity activity

For orientation, consider the following solved cases.
# compound, system.under.test, metric.name, endpoint.result
measured = [
    ("CC=C(C)C(=O)OCC1(C)C(OC(=O)CCCCC)CCC2(C)C1CCC1(C)C2CC=C2C3CC(C)(C)C(O)C(OC(=O)CCCCC)C3(COC(=O)C(C)=CC)C(O)CC21C (centres unmarked)", "cancer cells", "Cytotoxicity activity", "weak"),
    ("CC=C(C)C(=O)OCC1(C)C(O)CCC2(C)C1CCC1(C)C2CC=C2C3CC(C)(C)C(O)C(OC(C)=O)C3(COC(C)=O)C(O)CC21C (centres unmarked)", "cancer cells", "Cytotoxicity activity", "moderate"),
    ("CC=C(C)C(=O)OCC1(C)C(OC(=O)C(CC)CC)CCC2(C)C1CCC1(C)C2CC=C2C3CC(C)(C)C(O)C(O)C3(COC(=O)C(C)=CC)C(O)CC21C (centres unmarked)", "cancer cells", "Cytotoxicity activity", "moderate"),
    ("C=CCCC(=O)OC1C(O)C(C)(C)CC2C3=CCC4C5(C)CCC(O)C(C)(COC(=O)C(C)=CC)C5CCC4(C)C3(C)CC(O)C21COC(=O)C(C)=CC (centres unmarked)", "cancer cells", "Cytotoxicity activity", "moderate"),
    ("CC=C(C)C(=O)OCC1(C)C(OC(=O)C(CC)CC)CCC2(C)C1CCC1(C)C2CC=C2C3CC(C)(C)C(O)C(OC(=O)C(CC)CC)C3(COC(=O)C(C)=CC)C(O)CC21C (centres unmarked)", "cancer cells", "Cytotoxicity activity", "weak"),
]

Simply: CC=C(C)C(=O)OCC1(C)C(O)CCC2(C)C1CCC1(C)C2CC=C2C3CC(C)(C)C(O)C(OC(=O)C=C(C)C)C3(COC(=O)C(C)=CC)C(O)CC21C (centres unmarked) , cancer cells, Cytotoxicity activity = moderate

Item CC=C(C)C(=O)OCC1(C)C(O)CCC2(C)C1CCC1(C)C2CC=C2C3CC(C)(C)C(O)C(OC(=O)CCCCC)C3(COC(=O)CCCCC)C(O)CC21C (centres unmarked) ; assay system cancer cells; Cytotoxicity activity reported as moderate

---

Tested on: cancer cells
assay.name: MTT cytotoxic assay of esterification products (Cytotoxicity activity)
Assay type: cell-based, human
run.conditions: E4A esterified with Cinnamoyl chloride (Cin = Cinnamoyl), compounds isolated with HPLC

# compound, system.under.test, Cytotoxicity activity
rows = [
    ("CC1(C)CC2C3=CCC4C5(C)CCC(O)C(C)(COC(=O)C=Cc6ccccc6)C5CCC4(C)C3(C)CC(O)C2(COC(=O)C=Cc2ccccc2)C(OC(=O)C=Cc2ccccc2)C1OC(=O)C=Cc1ccccc1 (stereo not drawn)", "cancer cells", "weak"),
    ("CC1(C)CC2C3=CCC4C5(C)CCC(OC(=O)C=Cc6ccccc6)C(C)(COC(=O)C=Cc6ccccc6)C5CCC4(C)C3(C)CC(O)C2(COC(=O)C=Cc2ccccc2)C(O)C1OC(=O)C=Cc1ccccc1 (stereo not drawn)", "cancer cells", "weak"),
]

These measurements were taken from patent US20230340012A1.
